All figures here come from patent US9056876B2.

Listing of entries alongside the reported EC50.
Biological target: mAChR M4 (UniProt P08173)
Construct: hM1 and hM4 cDNAs were purchased from Missouri S&T cDNA Resource
Sequence (P08173 1-479): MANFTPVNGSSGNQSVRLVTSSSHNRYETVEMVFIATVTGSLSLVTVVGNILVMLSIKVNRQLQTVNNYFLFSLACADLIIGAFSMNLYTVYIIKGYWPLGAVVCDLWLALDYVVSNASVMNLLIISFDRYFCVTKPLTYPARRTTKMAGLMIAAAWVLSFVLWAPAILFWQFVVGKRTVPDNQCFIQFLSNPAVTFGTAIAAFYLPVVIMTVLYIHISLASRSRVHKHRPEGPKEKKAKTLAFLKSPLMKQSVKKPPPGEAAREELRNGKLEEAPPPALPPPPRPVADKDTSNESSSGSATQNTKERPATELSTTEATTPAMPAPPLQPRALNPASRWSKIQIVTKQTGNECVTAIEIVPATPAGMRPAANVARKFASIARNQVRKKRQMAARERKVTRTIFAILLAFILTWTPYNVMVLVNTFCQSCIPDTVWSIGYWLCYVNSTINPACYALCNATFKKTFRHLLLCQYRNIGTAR
Experiment: mAChR M4 cell-based functional assay (calcium mobilization, Fluo-4, FDSS)
Conditions: positive allosteric modulator activity: concentration-dependent increase in the EC20 acetylcholine response, CHO-K1 cells; >10 μM estimated for low potency (no plateau)

>  <MOLECULE>
COCCn1nc(NCc2ccc(OC)cc2)c2sc3nc(C)cc(C)c3c21

>  <MEASURED TARGET>
mAChR M4 (UniProt P08173)

>  <EC50>
> 10 µM

$$$$
>  <MOLECULE>
Cc1nc2sc3c(NCC4CC4)n[nH]c3c2c(C)c1Cl

>  <MEASURED TARGET>
mAChR M4 (UniProt P08173)

>  <EC50>
1.6 µM

$$$$
>  <MOLECULE>
Cc1cc(C)c2c(n1)sc1c(NC(C)C)nn(C)c12

>  <MEASURED TARGET>
mAChR M4 (UniProt P08173)

>  <EC50>
0.78 µM

$$$$
>  <MOLECULE>
Cc1ccc2c(n1)sc1c(NCC3CC3)nn(C)c12

>  <MEASURED TARGET>
mAChR M4 (UniProt P08173)

>  <EC50>
1.3 µM

$$$$
>  <MOLECULE>
Cc1cc(C)c2c(n1)sc1c(NCc3ccccn3)nn(C)c12

>  <MEASURED TARGET>
mAChR M4 (UniProt P08173)

>  <EC50>
0.54 µM

$$$$

* * *

Target: mAChR M4 (UniProt P08173)
Construct: hM1 and hM4 cDNAs were purchased from Missouri S&T cDNA Resource
Assay: mAChR M4 cell-based functional assay (calcium mobilization, Fluo-4, FDSS)
Settings: positive allosteric modulator activity, EC20 acetylcholine response, CHO-K1 cells
Procedure: Chinese hamster ovary (CHO-K1) cells stably expressing rat (r)M1 were purchased from the American Type Culture Collection and cultured according to their indicated protocol. […] Calcium flux was measured using the Functional Drug Screening System (FDSS) 6000 (Hamamatsu Corporation, Tokyo, Japan) as an increase in the fluorescent static ratio. […] Agonist activity was analyzed as a concentration-dependent increase in calcium mobilization upon compound addition. […]
Assign classes using reported pEC50 values and the ranges low group: < 6; middle group: ≥ 6 and < 7; high group: ≥ 7, please.

>  <MOLECULE>
Cc1cc(C)c2c(n1)sc1c(NC(C)C)n[nH]c12 [Compound 11]

>  <ASSIGNED LABEL>
low group

$$$$
>  <MOLECULE>
COc1cc(OC)cc(C(C)Nc2nn(C)c3c2sc2nc(C)cc(C)c23)c1 (centres unmarked) [Compound 48]

>  <ASSIGNED LABEL>
low group

$$$$
>  <MOLECULE>
Cc1nc2sc3c(NCc4ccc(F)c(F)c4)n[nH]c3c2c(C)c1Cl [Compound 146]

>  <ASSIGNED LABEL>
low group

$$$$
>  <MOLECULE>
Cc1ccc2c(n1)sc1c(NC(C)C)nn(C)c12 [Compound 70]

>  <ASSIGNED LABEL>
low group

$$$$
>  <MOLECULE>
Cc1cc(C)c2c(n1)sc1c(NCc3scnc3C)nn(C)c12 [Compound 93]

>  <ASSIGNED LABEL>
high group

$$$$
>  <MOLECULE>
CCCn1nc(NCc2ccc(S(C)(=O)=O)cc2)c2sc3nc(C)cc(C)c3c21 [Compound 120]

>  <ASSIGNED LABEL>
low group

$$$$
>  <MOLECULE>
Cc1ccnc2sc3c(NCc4ccccc4)nn(C)c3c12 [Compound 68]

>  <ASSIGNED LABEL>
middle group

$$$$
>  <MOLECULE>
Cc1nc2sc3c(NCC4CC4)nn(C)c3c2c(C)c1Cl [Compound 19]

>  <ASSIGNED LABEL>
middle group

$$$$
>  <MOLECULE>
Cc1nc2sc3c(NCC4CC4)n[nH]c3c2c(C)c1Cl [Compound 14]

>  <ASSIGNED LABEL>
low group

$$$$
>  <MOLECULE>
Cc1cc(C)c2c(n1)sc1c(NC3CN(C(=O)OC(C)(C)C)C3)nn(C)c12 [Compound 106]

>  <ASSIGNED LABEL>
high group

$$$$
>  <MOLECULE>
Cc1cc(C)c2c(n1)sc1c(NC3CCOC3)nn(C)c12 (centres unmarked) [Compound 103]

>  <ASSIGNED LABEL>
middle group

$$$$
>  <MOLECULE>
Cc1cc(C)c2c(n1)sc1c(NCc3cccs3)nn(CCO)c12 [Compound 101]

>  <ASSIGNED LABEL>
high group

$$$$
>  <MOLECULE>
Cc1nc2sc3c(NCc4ccc(F)cc4)nn(C)c3c2c(C)c1Cl [Compound 22]

>  <ASSIGNED LABEL>
low group

$$$$
>  <MOLECULE>
Cc1cc(C)c2c(n1)sc1c(NCc3cccnc3)nn(C)c12 [Compound 76]

>  <ASSIGNED LABEL>
middle group

$$$$
>  <MOLECULE>
Cc1ccnc2sc3c(NCc4ccncc4)nn(C)c3c12 [Compound 62]

>  <ASSIGNED LABEL>
middle group

$$$$
>  <MOLECULE>
Cc1cc(C)c2c(n1)sc1c(NCc3cc(C)on3)nn(C)c12 [Compound 97]

>  <ASSIGNED LABEL>
low group

$$$$

* * *

biological target: mAChR M4 (UniProt P08173); construct: hM1 and hM4 cDNAs were purchased from Missouri S&T cDNA Resource; test: mAChR M4 cell-based functional assay (calcium mobilization, Fluo-4, FDSS); conditions: positive allosteric modulator activity: concentration-dependent increase in the EC20 acetylcholine response, CHO-K1 cells; >10 μM estimated for low potency (no plateau)
pEC50: −log10 of the molar value.
QUANTITY: pEC50

>  <COMPOUND>
Cc1ccc2c(n1)sc1c(NC(=O)c3ccc(Br)cc3)n[nH]c12

>  <QUANTITY>
pEC50

>  <PREFIX OPERATOR>
<

>  <VALUE OBSERVED>
5.00

$$$$
>  <COMPOUND>
CCCn1nc(N)c2sc3nc(C)cc(C)c3c21

>  <QUANTITY>
pEC50

>  <PREFIX OPERATOR>
<

>  <VALUE OBSERVED>
5.00

$$$$
>  <COMPOUND>
COC(=O)Cn1nc(NCc2ccc(S(C)(=O)=O)cc2)c2sc3nc(C)cc(C)c3c21

>  <QUANTITY>
pEC50

>  <PREFIX OPERATOR>
<

>  <VALUE OBSERVED>
5.00

$$$$
>  <COMPOUND>
COc1ccc(CNc2nn(C)c3c2sc2nc(C)cc(C)c23)cc1

>  <QUANTITY>
pEC50

>  <PREFIX OPERATOR>
=

>  <VALUE OBSERVED>
6.66

$$$$
>  <COMPOUND>
Cc1cc(C)c2c(n1)sc1c(NCc3[nH]cnc3C)nn(C)c12

>  <QUANTITY>
pEC50

>  <PREFIX OPERATOR>
=

>  <VALUE OBSERVED>
6.37

$$$$
>  <COMPOUND>
Cc1cc(C)c2c(n1)sc1c(NC3CCN(C(C)C)CC3)n[nH]c12

>  <QUANTITY>
pEC50

>  <PREFIX OPERATOR>
<

>  <VALUE OBSERVED>
5.00

$$$$
>  <COMPOUND>
Cc1cc(C)c2c(n1)sc1c(NCc3ccc4[nH]ccc4c3)nn(C)c12

>  <QUANTITY>
pEC50

>  <PREFIX OPERATOR>
=

>  <VALUE OBSERVED>
5.89

$$$$
>  <COMPOUND>
Cc1cc(C)c2c(n1)sc1c(NCC3CCCO3)nn(C)c12 (stereo not shown)

>  <QUANTITY>
pEC50

>  <PREFIX OPERATOR>
=

>  <VALUE OBSERVED>
6.02

$$$$
>  <COMPOUND>
Cc1ccc(CNc2nn(C)c3c2sc2nc(C)cc(C)c23)c(C)c1

>  <QUANTITY>
pEC50

>  <PREFIX OPERATOR>
=

>  <VALUE OBSERVED>
5.60

$$$$
>  <COMPOUND>
Cc1ccc2c(n1)sc1c(NC(=O)c3ccccc3)n[nH]c12

>  <QUANTITY>
pEC50

>  <PREFIX OPERATOR>
<

>  <VALUE OBSERVED>
5.00

$$$$
>  <COMPOUND>
Cc1ccc2c(n1)sc1c(NCc3ccco3)nn(C)c12

>  <QUANTITY>
pEC50

>  <PREFIX OPERATOR>
=

>  <VALUE OBSERVED>
5.82

$$$$
>  <COMPOUND>
Cc1cc(C)c2c(n1)sc1c(NC3CCCN(C(=O)OC(C)(C)C)C3)n[nH]c12 (stereo not shown)

>  <QUANTITY>
pEC50

>  <PREFIX OPERATOR>
<

>  <VALUE OBSERVED>
5.00

$$$$
>  <COMPOUND>
Cc1cc(C)cc(CNc2n[nH]c3c2sc2nc(C)c(Cl)c(C)c23)c1

>  <QUANTITY>
pEC50

>  <PREFIX OPERATOR>
<

>  <VALUE OBSERVED>
5.00

$$$$
>  <COMPOUND>
Cc1cc(C)c2c(n1)sc1c(NC3CCOCC3)nn(C)c12

>  <QUANTITY>
pEC50

>  <PREFIX OPERATOR>
=

>  <VALUE OBSERVED>
6.00

$$$$
>  <COMPOUND>
Cc1cc(C)c2c(n1)sc1c(NC3CCSCC3)nn(CCO)c12

>  <QUANTITY>
pEC50

>  <PREFIX OPERATOR>
=

>  <VALUE OBSERVED>
6.43

$$$$
>  <COMPOUND>
Cc1cc(C)c2c(n1)sc1c(NCc3ccco3)nn(CCO)c12

>  <QUANTITY>
pEC50

>  <PREFIX OPERATOR>
=

>  <VALUE OBSERVED>
6.92

$$$$
>  <COMPOUND>
Cc1ccc2c(n1)sc1c(N)n[nH]c12

>  <QUANTITY>
pEC50

>  <PREFIX OPERATOR>
<

>  <VALUE OBSERVED>
5.00

$$$$
>  <COMPOUND>
Cc1nc2sc3c(NCc4ccco4)n[nH]c3c2c(C)c1Cl

>  <QUANTITY>
pEC50

>  <PREFIX OPERATOR>
=

>  <VALUE OBSERVED>
5.85

$$$$
>  <COMPOUND>
Cc1cc(C)c2c(n1)sc1c(NC(=O)c3ccccc3)n[nH]c12

>  <QUANTITY>
pEC50

>  <PREFIX OPERATOR>
<

>  <VALUE OBSERVED>
5.00

$$$$
